- ASSAY TARGET: recombinant human DPP-1 (Cathepsin C) (Homo sapiens, UniProt P53634)
- Sequence (P53634 25-463): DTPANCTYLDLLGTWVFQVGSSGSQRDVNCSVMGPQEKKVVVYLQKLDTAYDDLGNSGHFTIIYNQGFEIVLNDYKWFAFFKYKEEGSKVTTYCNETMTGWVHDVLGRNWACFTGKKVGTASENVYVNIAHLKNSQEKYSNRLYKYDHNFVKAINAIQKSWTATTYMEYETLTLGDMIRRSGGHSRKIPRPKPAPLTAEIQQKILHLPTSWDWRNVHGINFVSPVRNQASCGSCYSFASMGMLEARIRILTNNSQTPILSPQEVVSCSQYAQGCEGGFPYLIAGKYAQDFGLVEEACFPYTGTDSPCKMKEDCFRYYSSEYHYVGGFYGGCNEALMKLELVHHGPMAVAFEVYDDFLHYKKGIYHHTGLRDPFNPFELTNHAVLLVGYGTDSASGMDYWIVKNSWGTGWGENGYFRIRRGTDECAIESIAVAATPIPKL
- PROTOCOL SUMMARY: DPP-1 Inhibition Assay (In Vitro)
- RUN CONDITIONS: fluorogenic substrate GR-AMC 10 uM, 0.15 nM DPP-1, pH 7.0, room temperature; average value where tested multiple times
- Protocol: Test compounds were assessed for DPP-1 (Cathepsin C) inhibitory activity using a fluorogenic substrate, GR-AMC (Glycine-Arginine-amino-4-methylcoumarin, Bachem, 1-1215). The amount of amino-methylcoumarin released is proportional to the DPP-1 activity, and the reaction is monitored kinetically with a Molecular Devices plate reader using black 96-well plates. All compounds were tested under room temperature conditions. […]
Structures can show the parent of a compound that is named as a salt.
Field: IC50. Provide a value for each of the compounds that follow.

Some compounds with recorded IC50:
COMPOUND	QUANTITY NAME	REPORTED
N[C@@H](Cc1cccs1)C(=O)N1CCN(c2nc3ccc(-c4ccc(C(F)(F)F)cc4)cc3s2)CC1	IC50	1300 nM
CC[C@H](N)C(=O)NCCNc1nc2ccccc2o1	IC50	~8000 nM
N[C@@H](Cc1cccs1)C(=O)N1CCN(c2nc3ccc(CO)cc3s2)CC1	IC50	760 nM

Now consider the entry below.
IN: May I ask what IC50 has been recorded for N[C@@H](Cc1cccs1)C(=O)NCCNc1nc2ccccc2s1 [Compound 46, hydrochloride] ?
OUT: 740 nM
